Numbers sourced from paper PMC4595849.

Molecular target: hDHODH (Met30-Arg396) (Homo sapiens, UniProt Q02127)
Construct: hDHODH (Met30-Arg396) was expressed and purified in the same manner as described in our recently published work; made in house
Sequence (Q02127 29-395): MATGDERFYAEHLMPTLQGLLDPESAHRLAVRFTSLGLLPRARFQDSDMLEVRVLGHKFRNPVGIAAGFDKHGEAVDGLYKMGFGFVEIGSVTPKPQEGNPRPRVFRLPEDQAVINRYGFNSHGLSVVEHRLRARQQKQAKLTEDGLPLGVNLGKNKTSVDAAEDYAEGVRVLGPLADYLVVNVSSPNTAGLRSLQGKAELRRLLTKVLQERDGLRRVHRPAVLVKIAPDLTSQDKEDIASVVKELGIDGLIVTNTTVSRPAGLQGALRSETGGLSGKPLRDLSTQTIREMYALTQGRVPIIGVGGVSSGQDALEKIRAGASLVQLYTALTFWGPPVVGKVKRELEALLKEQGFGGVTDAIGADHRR
Test: hDHODH enzyme inhibition, DCIP assay
Type: biochemical
Settings: LLE = pIC50 − clogP
MEASURED_QUANTITY: LLE

>  <COMPOUND>
Brc1ccc(-c2csc(N/N=C/c3ccccc3)n2)cc1 [Compound 12]

>  <LLE>
<−0.42

$$$$
>  <COMPOUND>
O=C(O)c1ccc(/C=N/Nc2nc(-c3ccccc3Cl)cs2)cc1 [Compound 21]

>  <LLE>
<0.28

$$$$
>  <COMPOUND>
Oc1c(Cl)cc(Cl)cc1/C=N/Nc1nc(-c2ccccc2)cs1 [Compound 9]

>  <LLE>
<−1.58

$$$$

Below: the item to evaluate.
Measured LLE of Oc1c(Cl)cc(Cl)cc1/C=N/Nc1nc(-c2ccc(Cl)cc2Cl)cs1 [Compound 10] : <−2.53
